# MIC per entry
- Test system: Staphylococcus aureus
- assay_method_text: Antibacterial activity against multidrug resistant Staphylococcus aureus ATCC 25923 assessed as bacterial growth inhibition
- Type: functional

Please review the following examples before continuing.
molecular_string	readout_value
O=C(CCCCCNC(=O)[C@@H]1CC[C@@H]2CN1C(=O)N2OS(=O)(=O)O)NNC(=O)c1cn(C2CC2)c2cc(N3CCNCC3)c(F)cc2c1=O	> 64 µg/mL
COc1ccc(C[C@H](NC(=O)[C@@H]2CC[C@@H]3CN2C(=O)N3OS(=O)(=O)O)C(=O)NNC(=O)c2cn(C3CC3)c3cc(N4CCNCC4)c(F)cc3c2=O)cc1OC	> 64 µg/mL

**Q:** Quick check: MIC on Staphylococcus aureus, item "CC(C)(C)OC(=O)N1CCN(c2cc3c(cc2F)c(=O)c(C(=O)NNC(=O)[C@@H]2CC[C@@H]4CN2C(=O)N4OS(=O)(=O)[O-])cn3C2CC2)CC1.CCCC[N+](CCCC)(CCCC)CCCC" ?
**A:** 8 µg/mL

====

- System: Acinetobacter baumannii
- assay_method_text: Antibacterial activity against multidrug resistant Acinetobacter baumannii ATCC 2803 assessed as bacterial growth inhibition
- Format: functional
reported_metric: MIC

Please review the following examples before continuing.
> print(dat)
                           molecular.string  readout.value
1  O=C(NNC(=O)[C@@H]1CCCN1C(=O)[C@@H]1CC[C@@H]2CN1C(=O)N2OS(=O)(=O)O)c1cn(C2CC2)c2cc(N3CCNCC3)c(F)cc2c1=O    > 128 µg/mL
2  O=C(CCCNC(=O)[C@@H]1CC[C@@H]2CN1C(=O)N2OS(=O)(=O)O)NNC(=O)c1cn(C2CC2)c2cc(N3CCNCC3)c(F)cc2c1=O     > 64 µg/mL

Proceeding to the next molecule to report its MIC.
**Q:** What MIC value was documented for this molecule, "O=C(CCCCCNC(=O)[C@@H]1CC[C@@H]2CN1C(=O)N2OS(=O)(=O)O)NNC(=O)c1cn(C2CC2)c2cc(N3CCNCC3)c(F)cc2c1=O" ?
**A:** > 64 µg/mL

====

# MIC per entry
- Tested on: Staphylococcus aureus
- assay_method_text: Antibacterial activity against multidrug resistant Staphylococcus aureus ATCC 25923 assessed as bacterial growth inhibition
- Type: functional
All answers are understood in µg/mL, so give the number only.

Please review the following examples before continuing.
> print(dat)
                                   compound  units.symbol  readout.value
1  NC(=O)[C@@H]1CC[C@@H]2CN1C(=O)N2OS(=O)(=O)O [AVIBACTAM]         µg/mL            256
2  C[C@H](NC(=O)[C@@H]1CC[C@@H]2CN1C(=O)N2OS(=O)(=O)O)C(=O)NNC(=O)c1cn(C2CC2)c2cc(N3CCNCC3)c(F)cc2c1=O         µg/mL             16

**Q:** What MIC value was documented for this compound, "CC(C)[C@H](NC(=O)[C@@H]1CC[C@@H]2CN1C(=O)N2OS(=O)(=O)O)C(=O)NNC(=O)c1cn(C2CC2)c2cc(N3CCNCC3)c(F)cc2c1=O" ?
**A:** 128

====

- assayed_target: Metallo-beta-lactamase type 2 (Bacillus cereus, UniProt P14488)
- Sequence (P14488 whole entry): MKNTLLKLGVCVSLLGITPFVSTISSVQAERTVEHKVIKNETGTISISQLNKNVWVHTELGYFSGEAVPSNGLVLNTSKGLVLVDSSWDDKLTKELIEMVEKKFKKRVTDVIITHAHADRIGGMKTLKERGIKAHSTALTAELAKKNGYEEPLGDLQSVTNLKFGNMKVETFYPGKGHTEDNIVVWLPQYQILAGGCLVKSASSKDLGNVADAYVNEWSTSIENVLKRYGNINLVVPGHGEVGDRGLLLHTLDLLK
- assay_method_text: Inhibition of Bacillus cereus beta-lactamase II
reported_metric: pIC50
Please report pIC50 as the negative decimal logarithm of the molar concentration, giving only the number.

> print(dat)
                                   compound  readout.value
1  NC(=O)[C@@H]1CC[C@@H]2CN1C(=O)N2OS(=O)(=O)O [AVIBACTAM]           6.85
2  O=C(CNC(=O)[C@@H]1CC[C@@H]2CN1C(=O)N2OS(=O)(=O)O)NNC(=O)c1cn(C2CC2)c2cc(N3CCNCC3)c(F)cc2c1=O           6.65

**Q:** What pIC50 value was documented for this compound, "O=C(NNC(=O)[C@@H]1CC[C@@H]2CN1C(=O)N2OS(=O)(=O)O)c1cn(C2CC2)c2cc(N3CCNCC3)c(F)cc2c1=O" ?
**A:** 8.77

**Q:** Lookup "CC(C)[C@H](NC(=O)[C@@H]1CC[C@@H]2CN1C(=O)N2OS(=O)(=O)O)C(=O)NNC(=O)c1cn(C2CC2)c2cc(N3CCNCC3)c(F)cc2c1=O"
**A:** 7.24
